Where do the numbers come from? From patent US9776972B2.

Each entry below carries its recorded IC50.
Target: Human CARM1 (PRMT4) (Homo sapiens, UniProt Q86X55)
Construct: Flag-CARM1-His; made in house; host or cells: HEK 293F cells (BacMam baculovirus)
Sequence (Q86X55 1-585 isoform Q86X55-1): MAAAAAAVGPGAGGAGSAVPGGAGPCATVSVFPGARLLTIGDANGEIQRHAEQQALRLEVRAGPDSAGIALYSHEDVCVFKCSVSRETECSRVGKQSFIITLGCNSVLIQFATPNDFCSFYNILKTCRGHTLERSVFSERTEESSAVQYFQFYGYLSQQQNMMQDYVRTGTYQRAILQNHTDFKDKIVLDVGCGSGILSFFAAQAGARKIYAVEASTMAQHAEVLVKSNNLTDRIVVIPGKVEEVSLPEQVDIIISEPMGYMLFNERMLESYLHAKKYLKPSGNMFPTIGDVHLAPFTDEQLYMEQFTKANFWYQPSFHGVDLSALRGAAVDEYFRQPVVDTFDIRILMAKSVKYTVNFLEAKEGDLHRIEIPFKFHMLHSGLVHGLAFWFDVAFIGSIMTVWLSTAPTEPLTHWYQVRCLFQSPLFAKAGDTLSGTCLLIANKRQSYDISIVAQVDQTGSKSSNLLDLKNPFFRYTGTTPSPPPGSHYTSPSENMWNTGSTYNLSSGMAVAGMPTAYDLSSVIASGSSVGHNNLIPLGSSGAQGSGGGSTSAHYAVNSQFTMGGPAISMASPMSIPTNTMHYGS
Assay Protocol: CARM1 Biochemical Assay (3H-SAM Flashplate, peptide substrate)
Condition Context: single experiment or average of multiple experiments
Counter-ions that a name gives are not always drawn.
Measured Metric: IC50 (µM)

Molecule: Cc1ccc(-c2n[nH]cc2CN(C)CCN)cc1
Measurement: 0.612

Molecule: COc1cc(F)ccc1-c1n[nH]cc1CN(C)CCN
Measurement: 8.32

Molecule: COc1ccc(-c2n[nH]cc2CN(C)CCN)cc1F
Measurement: 2.6

Molecule: CNCCN(C)Cc1cn(CCCC(O)CO)nc1-c1ccc(F)cc1 (stereo not shown)
Measurement: 3.68

Molecule: CN(CCN)Cc1c[nH]nc1-c1ccc(OC(F)(F)F)cc1
Measurement: 1.83

Molecule: CNCCN(C)Cc1c[nH]nc1-c1ccc(OC)c(F)c1
Measurement: 1.5

Molecule: CN(CCN)Cc1c[nH]nc1-c1ccc(Cl)cc1Cl
Measurement: 4.19

Molecule: C=CCn1cc(CN(C)CCNC)c(-c2ccc(OC(C)C)cc2)n1
Measurement: 0.414

Molecule: CN(CCN)Cc1c[nH]nc1-c1cc(F)cc(F)c1
Measurement: 0.458

Molecule: CNCCN(C)Cc1c[nH]nc1-c1ccc(F)cc1F
Measurement: 5.04

Molecule: CNCCN(C)Cc1cn(Cc2ccccc2)nc1-c1ccc(OC(C)C)cc1
Measurement: 0.62

Molecule: CN(CCN)Cc1cn(CCO)nc1-c1ccc(F)cc1
Measurement: 3.79

Molecule: CNCCN(C)Cc1c[nH]nc1-c1ccc(CO)cc1
Measurement: 0.337

Molecule: CNCCN(C)Cc1c[nH]nc1-c1ccc(-c2ccccc2)cc1
Measurement: 0.0283

Molecule: CNCCN(C)Cc1c[nH]nc1-c1ccc(C)cc1C
Measurement: 6.3

Molecule: CN(CCN)Cc1cnn(CCO)c1-c1ccc(F)cc1
Measurement: 8.93

Molecule: CN(CCN)Cc1c[nH]nc1-c1ccc(C(C)(C)C)cc1
Measurement: 3.53

Molecule: CN(CCN)Cc1c[nH]nc1-c1cccc(C#N)c1
Measurement: 3.63

Molecule: CNCCN(C)Cc1cnn(C2CCCC2)c1-c1ccc(OC(C)C)cc1
Measurement: 1.17

Molecule: CC(C)Oc1ccc(-c2c[nH]nc2CN(C)CCN)cc1F
Measurement: 4.62

Molecule: CN(CCN)Cc1n[nH]cc1-c1ccc(C2CC2)cc1
Measurement: 1.96

Molecule: Cc1ccccc1-c1n[nH]cc1CN(C)CCN
Measurement: 6.13

Molecule: CC(=O)c1cccc(-c2n[nH]cc2CN(C)CCN)c1
Measurement: 2.44

Molecule: CN(CCN)Cc1n[nH]cc1-c1ccc(C(F)(F)F)cc1
Measurement: 1.48

Molecule: CN(CCN)Cc1c[nH]nc1-c1ccc(Cl)cc1F
Measurement: 2.11

Molecule: CN(CCN)Cc1c[nH]nc1-c1ccc(C#N)cc1
Measurement: 0.802

Molecule: CNCCN(C)Cc1cn(C2CCC2)nc1-c1ccc(OC(C)C)cc1 [Compound 254, hydrochloride]
Measurement: 0.413

Molecule: COc1cc(Cl)cc(-c2n[nH]cc2CN(C)CCN)c1
Measurement: 1.12

Molecule: CN(CCN)Cc1c[nH]nc1-c1ccc(Cl)c(F)c1
Measurement: 0.114

Molecule: CN(CCN)Cc1c[nH]nc1-c1ccc(OC2CC2)cc1
Measurement: 0.332

Molecule: CCN(CCNC)Cc1c[nH]nc1-c1ccc(F)cc1
Measurement: 2.81
